Where do these numbers come from? They come from patent US20220144922A1.

# tgt: T1, prefusion-stabilized RSV F ectodomain (DS-Cav1), subtype B (respiratory syncytial virus subtype B)
# T1 construct: extracellular domain; also called Prefusion subtype B
# assay_procedure: BLI, IgG on sensor
property: Kd (nM)
Answer with a number only, understood to be in nM.

Example entries and their recorded answers appear below.
- ADI-15622 (antibody, V domains shown, IgG; also called Antibody Number 187) VH: QVQLQESGGGLVQPGGSLRLSCSASGFTFSNYGMSWVRQAPGKGLEWVSGIGVSDGSTHYADSVKGRFIISRDNSKNMLSLQMSSLGVDDTAVYYCARIVIVGVLRFQEWLSSDGMDVWGQGTTVTVSS VL: DIVMTQTPSSVSASVGDRVTITCRASQAISGGLAWYQQKAGKAPKLLIYAASNLPSGVPSRFSGSGSGTDFTLTISSLQPEDFATYYCQQANSFPFTFGQGTRLEIK: 1.51
- ADI-15643 (antibody, V domains shown, IgG) VH: QVQLVQSGAEVKKPGESLKISCKTSGYRFTNYWIGWVRQMPGKGLEWMGIIYPGDSDARYSPSFQGQVTFSADKSISTAYLHWSSLKASDTAMYYCARQDDSGWADFFPFDYWGQGTLVTVSS VL: EIVLTQSPGTLSLSPGERATLSCRASHSFSSTYLAWYQQKPGQAPRLLIYAASNRATGIPDRFSGSGSGTDFTLTISRLEPEDFAVYFCQQYDSSPWTFGQGTKLEIK: 0.162
- ADI-15627 (antibody, V domains shown, IgG; also called Antibody Number 192) VH: EVQLVESGGGVVQPGRSLRLSCAASGFTFSDYAMHWVRQAPGKGLEWVAVIWYDGGNKYYADSAKGRFTISRDNSKNTLYLQMNSLRAEDTAVYYCAKDRGSIWNVGDGMDVWGQGTTVTVSS VL: QPVLTQPPSVSVAPGQTARVTCGGNNIGAKSVHWYQQKPGQAPVLVVDDDTDRPSGIPERFSGSNSGNTATLTISRVEAGDEADYYCQVWDASIGPLYVFGTGTKLTVL: 1.61
- ADI-15601 (antibody, V domains shown, IgG) VH: EVQLLETGGGLVKPGGSLRLSCEATGFTFSDFAMSWVRQAPGKGLEWVSLIKSSDYPYYADSVRGRFTISRDNSKNTLYLRMDNLRADDTAVYYCAKDADFWSGEAYNGGYNFDSWGQGTLVTVSS VL: EIVLTQSPATLSVSPGERATLSCRASQSIGTNLAWYQQKPGQAPRLLIFGASTRATGIPARFTGSGSGTEFTLTIGSLQSEDFAVYYCQQYNQWPPITFGGGTKVEIK: 0.329
- ADI-15583 (antibody, V domains shown, IgG) VH: QVQLVQSGAEVKKPGESLKISCKTSGYKFTNYWIGWVRQMPGKGLEWMGIIYPGDSDARYSPSFQGQVTFSADKSISTAYLQWSSLKASDTAMYYCARQDNSGWADFFPFDYWGQGTLVTVSS VL: ETTLTQSPGTLSLSPGERATLSCRASHSFSSSYLAWYQQKPGQAPRLLIYAASNRATGIPDRFSGSGSGTDFTLTISRLEPEDFAVYFCQQYDSSPWTFGQGTKVEIK: 0.351
- ADI-15602 (antibody, V domains shown, IgG) VH: EVQLLESGGGVVQPGKSLRLSCVASGFTFGDYGMHWVRQAPGKGLEWVAVISDGGSTKYYADSVKGRFTIARDNSKNTLNLQMNSLRAEDTAVYYCAKDLAWIFGLGASYMDVWGQGTLVTVSS VL: DIQLTQSPGTLSLSPGERATLSCRASQTVSSSYLAWYQQKPGQAPRLLIYDASSRATGIPDRFSGSGSGTDFTLTISRLEPEDFAVYYCQQYGSSPFGLTFGGGTKVEIK: 0.807
- ADI-15619 (antibody, V domains shown, IgG) VH: QVQLVQSGAEAKKPGASVKVSCTASGYTFTNDINWVRQATGQGLEWMGWMNPNNGHTGYGQKFEDRVTLTRDSSRSTAYMELSSLRFEDTAVYYCVYNFWSDSSVSWGRGTLVTVSS VL: QSVVTQPPSVSGAPGQSVAISCTGSSSNIGPAYDVHWYQQTPGAAPKLLIYGDSNRPSGVPDRFSTSKSGTSASLAITGLQAEDEADYYCQSFDSSLRGYVFGTGTKVTVL: 6.91
- ADI-15663 (antibody, V domains shown, IgG) VH: QVQLVQSGGGLVKPGGSLRLSCAASGFTFSSYTMNWVRQAPGKGLEWVSSITGGSSFTNYADSLEGRFTISRDNAKSSLFLQMNSLRVEDTAVYYCARDQPGTIFGVVQDYWGQGTLVTVSS VL: QSVLTQPPSVSGAPGQRVTISCTGGSSNIGAGYDVHWYQQLPGTAPKLLIYGNSNRPSGVPDRFSGSKSGTSASLAITGLQAEDEADYYCQSYDSRLSVVFGGGTKVTVL: 0.287

Query: Given the entry ADI-15645 (antibody, V domains shown, IgG) VH: EVQLLESGGGLVQPGGSLRLSCAASGFTFSSYAMSWVRQIPGKGLEWVSTINISGGSTYYADSVKGRFTISRDNSRDTVFLQMNGLRAEDTALYYCARGYHIDWFDFWGQGTLVTVSS VL: DIVLTQTPSSVSASVGDRVTITCRASQDIGSWLAWYQQKPGKAPQFLIYAASQLQSGVPSRFSGSGSGTDFTLTISSLQPEDFATYYCQQAKSLPRTFGGGTKVDIK , report its measured Kd.
Response: 4.6

Query: Also ADI-15632 (antibody, V domains shown, IgG; also called Antibody Number 197) VH: QVQLVQSGGGLVQPGRSLRLSCTASGFSFSDYGVTWVRQAPGKGLEWIGFVRTKGYGGTTEYAASVRGRFTISRDDSKSVAYLQLNSLKVEDTAVYYCSGASRGFWSGPTYYYFGMDVWGHGTTVTVSS VL: EIVLTQSPLSLAVTPGEPASISCRSSQSLLHGNGYNYLDWYLQKPGQSPQLLIFWGSYRASGAPDRFSASGSGSEFTLKIRRVEAEDVGVYYCMQPLQTTFGQGTKVDIK , if possible.
Response: 29.4
